src = ChEMBL document CHEMBL3734731

SYSTEM TESTED: UniProt:P29371
METHOD: Displacement of ([125I]His3-MePhe7)-NKB from NK3 receptor (unknown origin) expressed in CHO cells by scintillation counter
Numbered stars: 1 amine (or outer) side, 2 acyl side, 3 side chain; on linkers, the order of the positions; unused ones are H or OH. Square brackets hold non-standard residues; d marks the D form. Peptide text beside a SMILES is read from it. NMeW = CN[C@@H](Cc1c[nH]c2ccccc12)C(=O)O; Suc = O=C(CCC(=O)[*:2])[*:1]
METRIC NAME: IC50 (nM)
Please state the figure in nM; there is no need to write the unit.

Input: // IC50 lookup, key: CSCC[C@H](NC(=O)[C@H](CC(C)C)NC(=O)CNC(=O)[C@H](Cc1c[nH]c2ccccc12)N(C)C(=O)[C@H](Cc1ccccc1)NC(=O)[C@H](CC(=O)O)NC(=O)CCC(=O)O)C(N)=O (Suc-DF[NMeW]GLM-NH2)
Output: 123

Input: // IC50 lookup, key: "CSCC[C@H](NC(=O)[C@H](CC(C)C)NC(=O)CNC(=O)[C@H](Cc1ccccc1)N(C)C(=O)[C@H](Cc1ccccc1)NC(=O)[C@H](CC(=O)O)NC(=O)C(=O)O)C(N)=O"
Output: 3.6

Input: // IC50 lookup, key: "CSCC[C@H](NC(=O)[C@H](CC(C)C)NC(=O)CNC(=O)[C@H](Cc1ccccc1)N(C)C(=O)[C@H](Cc1ccccc1)NC(=O)[C@H](CC(=O)O)NC(=O)NN)C(N)=O"
Output: 34

Input: // IC50 lookup, key: "CSCC[C@H](NC(=O)[C@H](CC(C)C)NC(=O)CNC(=O)[C@H](Cc1ccccc1)N(C)C(=O)[C@H](Cc1ccccc1)NC(=O)[C@H](CC(=O)O)NC(=O)[C@H](CC(=O)O)NC(C)=O)C(N)=O"
Output: 68

Input: // IC50 lookup, key: "CSCC[C@H](NC(=O)[C@H](CC(C)C)NC(=O)CNC(=O)[C@H](Cc1ccccc1)N(C)C(=O)[C@H](Cc1ccccc1)NC(=O)[C@@H](CCC(=O)O)NC(=O)[C@H](CC(=O)O)NC(C)=O)C(N)=O"
Output: 37

====

Please provide measured IC50 for the entries that follow.
SYSTEM TESTED: UniProtKB P29371
Sequence (P29371 whole entry): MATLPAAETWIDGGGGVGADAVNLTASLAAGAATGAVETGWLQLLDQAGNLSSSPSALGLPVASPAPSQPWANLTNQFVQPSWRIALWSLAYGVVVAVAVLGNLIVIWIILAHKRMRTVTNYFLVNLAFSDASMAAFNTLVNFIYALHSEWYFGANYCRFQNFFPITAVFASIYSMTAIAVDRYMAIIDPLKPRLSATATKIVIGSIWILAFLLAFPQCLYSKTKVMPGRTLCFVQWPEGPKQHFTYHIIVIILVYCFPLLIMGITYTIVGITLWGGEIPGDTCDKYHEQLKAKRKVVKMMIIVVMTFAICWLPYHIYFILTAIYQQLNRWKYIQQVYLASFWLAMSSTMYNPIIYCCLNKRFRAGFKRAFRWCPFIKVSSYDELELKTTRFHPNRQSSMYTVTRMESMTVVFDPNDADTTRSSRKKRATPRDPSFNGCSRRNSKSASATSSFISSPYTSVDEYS
METHOD: Displacement of ([125I]His3-MePhe7)-NKB from NK3 receptor (unknown origin) expressed in CHO cells by scintillation counter
Numbered stars: 1 amine (or outer) side, 2 acyl side, 3 side chain; on linkers, the order of the positions; unused ones are H or OH. Square brackets hold non-standard residues; d marks the D form. Peptide text beside a SMILES is read from it. * marks the point of attachment. NMeF = CN[C@@H](Cc1ccccc1)C(=O)O; NMeD = CN[C@@H](CC(=O)O)C(=O)O; Methoxyoxalyl = COC(=O)C(=O)*; Suc = O=C(CCC(=O)[*:2])[*:1]

Input: // IC50 lookup, key: "CSCC[C@H](NC(=O)[C@H](CC(C)C)NC(=O)CNC(=O)[C@H](Cc1ccccc1)N(C)C(=O)[C@H](Cc1ccccc1)NC(=O)[C@H](CCC(=O)O)NC(=O)[C@@H](CC(=O)O)NC(C)=O)C(N)=O"
Output: 13 nM

Input: // IC50 lookup, key: "CSCC[C@H](NC(=O)[C@H](CC(C)C)NC(=O)CNC(=O)[C@H](Cc1ccccc1)N(C)C(=O)[C@H](Cc1ccccc1)NC(=O)[C@@H](CC(=O)O)NC(=O)[C@H](CC(=O)O)NC(C)=O)C(N)=O"
Output: 83 nM

Input: // IC50 lookup, key: COC(=O)C(=O)N[C@@H](CC(=O)O)C(=O)N[C@@H](Cc1ccccc1)C(=O)N(C)[C@@H](Cc1ccccc1)C(=O)NCC(=O)N[C@@H](CC(C)C)C(=O)N[C@@H](CCSC)C(N)=O (Methoxyoxalyl-DF[NMeF]GLM-NH2)
Output: 4.1 nM

Input: // IC50 lookup, key: "CSCC[C@H](NC(=O)[C@H](CC(C)C)NC(=O)CNC(=O)[C@H](Cc1ccccc1)N(C)C(=O)[C@H](Cc1ccccc1)NC(=O)[C@@H](CC(=O)O)NC(=O)C(=O)O)C(N)=O"
Output: 3.5 nM

Input: // IC50 lookup, key: CSCC[C@H](NC(=O)[C@H](CC(C)C)NC(=O)CNC(=O)[C@H](CC(=O)O)N(C)C(=O)[C@H](Cc1ccccc1)NC(=O)[C@H](CC(=O)O)NC(=O)CCC(=O)O)C(N)=O (Suc-DF[NMeD]GLM-NH2)
Output: > 10000 nM

====

SYSTEM TESTED: Neuromedin-K receptor (Homo sapiens, UniProt P29371)
METHOD: Agonist activity at human NK3 receptor expressed in CHO cells assessed as calcium influx relative to 100 nM senktide
Numbered stars: 1 amine (or outer) side, 2 acyl side, 3 side chain; on linkers, the order of the positions; unused ones are H or OH. Square brackets hold non-standard residues; d marks the D form. Peptide text beside a SMILES is read from it. * marks the point of attachment. X2 = NS(=O)(=O)N[C@@H](CC(=O)O)C(=O)*; NMeY = CN[C@@H](Cc1ccc(O)cc1)C(=O)O; X1 = NC(=O)N[C@@H](CC(=O)O)C(=O)*; NMeF = CN[C@@H](Cc1ccccc1)C(=O)O; Aad = N[C@@H](CCCC(=O)O)C(=O)O; Methoxyoxalyl = COC(=O)C(=O)*; Oxalyl = O=C(C(=O)[*:2])[*:1]; Suc = O=C(CCC(=O)[*:2])[*:1]; NMeV = CN[C@H](C(=O)O)C(C)C; Oxamoyl = NC(=O)C(=O)*; CONHOH = O=C(NO)*
METRIC NAME: pEC50
// pEC50 here means minus log10 of the molar concentration (mol/L)

Input: // pEC50 lookup, key: CSCC[C@H](NC(=O)[C@H](CC(C)C)NC(=O)CNC(=O)[C@H](Cc1ccccc1)N(C)C(=O)[C@H](Cc1ccccc1)NC(=O)[C@H](CC(=O)O)NC(=O)NO)C(N)=O ({CONHOH}-DF[NMeF]GLM-NH2)
Output: 10.37

Input: // pEC50 lookup, key: "CSCC[C@H](NC(=O)[C@H](CC(C)C)NC(=O)CNC(=O)[C@H](Cc1ccccc1)N(C)C(=O)[C@H](Cc1ccccc1)NC(=O)[C@H](CCC(=O)O)NC(=O)[C@H](CC(=O)O)NC(C)=O)C(N)=O"
Output: 11.09

Input: // pEC50 lookup, key: "CSCC[C@H](NC(=O)[C@H](CC(C)C)NC(=O)CNC(=O)[C@H](Cc1ccccc1)N(C)C(=O)[C@H](Cc1ccccc1)NC(=O)[C@H](CC(=O)O)NC(=O)[C@@H](CC(=O)O)NC(C)=O)C(N)=O"
Output: 10.74

Input: // pEC50 lookup, key: "CSCC[C@H](NC(=O)[C@H](CC(C)C)NC(=O)CNC(=O)[C@H](Cc1ccccc1)N(C)C(=O)[C@H](Cc1ccccc1)NC(=O)[C@@H](CCC(=O)O)NC(=O)C(=O)O)C(N)=O"
Output: 10.85

Input: // pEC50 lookup, key: "CSCC[C@H](NC(=O)[C@H](CC(C)C)NC(=O)CNC(=O)[C@H](Cc1ccccc1)N(C)C(=O)[C@H](Cc1ccccc1)NC(=O)[C@@H](CC(=O)O)NC(=O)[C@@H](CC(=O)O)NC(C)=O)C(N)=O"
Output: 10.77

Input: // pEC50 lookup, key: "CSCC[C@H](NC(=O)[C@H](CC(C)C)NC(=O)CNC(=O)[C@H](Cc1ccccc1)N(C)C(=O)[C@H](Cc1ccccc1)NC(=O)[C@@H](CCC(=O)O)NC(=O)[C@@H](CC(=O)O)NC(C)=O)C(N)=O"
Output: 10.77

Input: // pEC50 lookup, key: "CSCC[C@H](NC(=O)[C@H](CC(C)C)NC(=O)CNC(=O)[C@H](Cc1ccccc1)N(C)C(=O)[C@H](Cc1ccccc1)NC(=O)[C@H](CC(=O)O)NC(=O)NN)C(N)=O"
Output: 11.22

Input: // pEC50 lookup, key: COC(=O)C(=O)N[C@@H](CC(=O)O)C(=O)N[C@@H](Cc1ccccc1)C(=O)N(C)[C@@H](Cc1ccccc1)C(=O)NCC(=O)N[C@@H](CC(C)C)C(=O)N[C@@H](CCSC)C(N)=O (Methoxyoxalyl-DF[NMeF]GLM-NH2)
Output: 11.54

Input: // pEC50 lookup, key: CSCC[C@H](NC(=O)[C@H](CC(C)C)NC(=O)CNC(=O)[C@H](Cc1ccccc1)N(C)C(=O)[C@H](Cc1ccccc1)NC(=O)[C@H](CC(=O)O)NC(N)=O)C(N)=O (X1-F[NMeF]GLM-NH2)
Output: 10.89

Input: // pEC50 lookup, key: CSCC[C@H](NC(=O)[C@H](CC(C)C)NC(=O)CNC(=O)[C@H](Cc1ccccc1)N(C)C(=O)[C@H](Cc1ccccc1)NC(=O)[C@H](CC(=O)O)NC(=O)C(N)=O)C(N)=O (Oxamoyl-DF[NMeF]GLM-NH2)
Output: 10.96

Input: // pEC50 lookup, key: "CSCC[C@H](NC(=O)[C@H](CC(C)C)NC(=O)CNC(=O)[C@H](Cc1ccccc1)N(C)C(=O)[C@H](Cc1ccccc1)NC(=O)[C@H](CCC(=O)O)NC(=O)[C@@H](CC(=O)O)NC(C)=O)C(N)=O"
Output: 10.92

Input: // pEC50 lookup, key: CSCC[C@H](NC(=O)[C@H](CC(C)C)NC(=O)CNC(=O)[C@H](Cc1ccccc1)N(C)C(=O)[C@H](Cc1ccccc1)NC(=O)[C@H](CC(=O)O)NS(N)(=O)=O)C(N)=O (X2-F[NMeF]GLM-NH2)
Output: 11.60

Input: // pEC50 lookup, key: CSCC[C@H](NC(=O)[C@H](CC(C)C)NC(=O)CNC(=O)[C@H](C(C)C)N(C)C(=O)[C@H](Cc1ccccc1)NC(=O)[C@H](CC(=O)O)NC(=O)CCC(=O)O)C(N)=O (Suc-DF[NMeV]GLM-NH2)
Output: 10.19

Input: // pEC50 lookup, key: CSCC[C@H](NC(=O)[C@H](CC(C)C)NC(=O)CNC(=O)[C@H](Cc1ccccc1)N(C)C(=O)[C@H](Cc1ccccc1)NC(=O)[C@H](CC(=O)O)NC(=O)[C@@H](N)CC(=O)O)C(N)=O (H-DDF[NMeF]GLM-NH2)
Output: 10.20

Input: // pEC50 lookup, key: "CSCC[C@H](NC(=O)[C@H](CC(C)C)NC(=O)CNC(=O)[C@H](Cc1ccccc1)N(C)C(=O)[C@H](Cc1ccccc1)NC(=O)[C@@H](CCC(=O)O)NC(=O)[C@H](CC(=O)O)NC(C)=O)C(N)=O"
Output: 10.74

Input: // pEC50 lookup, key: "CSCC[C@H](NC(=O)[C@H](CC(C)C)NC(=O)CNC(=O)[C@H](Cc1ccccc1)N(C)C(=O)[C@H](Cc1ccccc1)NC(=O)[C@H](CC(=O)O)NC(=O)C(=O)O)C(N)=O"
Output: 10.08

Input: // pEC50 lookup, key: "CSCC[C@H](NC(=O)[C@H](CC(C)C)NC(=O)CNC(=O)[C@H](Cc1ccccc1)N(C)C(=O)[C@H](Cc1ccccc1)NC(=O)[C@@H](CC(=O)O)NC(=O)[C@H](CC(=O)O)NC(C)=O)C(N)=O"
Output: 10.62

Input: // pEC50 lookup, key: CSCC[C@H](NC(=O)[C@H](CC(C)C)NC(=O)CNC(=O)[C@H](Cc1ccc(O)cc1)N(C)C(=O)[C@H](Cc1ccccc1)NC(=O)[C@H](CC(=O)O)NC(=O)CCC(=O)O)C(N)=O (Suc-DF[NMeY]GLM-NH2)
Output: 10.39

Input: // pEC50 lookup, key: CSCC[C@H](NC(=O)[C@H](CC(C)C)NC(=O)CNC(=O)[C@H](Cc1ccccc1)N(C)C(=O)[C@H](Cc1ccccc1)NC(=O)[C@H](CCCC(=O)O)NC(=O)C(=O)O)C(N)=O (Oxalyl-[Aad]F[NMeF]GLM-NH2)
Output: 11.13
